// provenance: ChEMBL document CHEMBL1155340

TARGET_SYSTEM: 5-hydroxytryptamine receptor 2C (Homo sapiens)
Sequence (P28335 whole entry): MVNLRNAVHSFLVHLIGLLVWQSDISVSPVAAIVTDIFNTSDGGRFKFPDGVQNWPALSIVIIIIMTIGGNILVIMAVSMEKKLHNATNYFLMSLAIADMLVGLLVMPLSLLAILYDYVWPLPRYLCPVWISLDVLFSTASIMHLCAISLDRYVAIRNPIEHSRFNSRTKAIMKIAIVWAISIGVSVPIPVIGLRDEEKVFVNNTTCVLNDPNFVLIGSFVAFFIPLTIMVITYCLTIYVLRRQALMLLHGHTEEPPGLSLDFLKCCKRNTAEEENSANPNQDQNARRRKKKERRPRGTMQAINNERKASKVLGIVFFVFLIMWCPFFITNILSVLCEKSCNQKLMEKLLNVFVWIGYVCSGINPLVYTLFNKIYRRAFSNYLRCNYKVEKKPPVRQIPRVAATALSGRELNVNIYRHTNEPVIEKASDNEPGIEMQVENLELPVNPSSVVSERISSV
Friendly reminder: EC50 below 100 nM is y, at or above is n.

> print(dat)
                                        mol  group.label
 1      O=c1cc2c(nn1Cc1ccc(C3CC3)cc1)CCNCC2            y
 2                     Cn1nc2c(cc1=O)CCNCC2            n
 3               CC(C)CCn1nc2c(cc1=O)CCNCC2            y
 4           Cn1c2c(c(=O)n1Cc1ccccc1)CCNCC2            n
 5        N#Cc1ccc(Cn2nc3c(cc2=O)CCNCC3)cc1            n
 6           O=c1cc2c(nn1CCOc1ccccc1)CCNCC2            n
 7              c1ccc(Cn2cc3c(n2)CCNCC3)cc1            n
 8    O=c1cc2c(nn1Cc1ccccc1OC(F)(F)F)CCNCC2            n
 9           O=c1c2c([nH]n1Cc1ccccc1)CCNCC2            n
10             O=c1cc2c(nn1-c1ccccc1)CCNCC2            n
11           O=c1cc2c(nn1Cc1ccccc1Cl)CCNCC2            y
12  O=c1cc2c(nn1Cc1ccc(OC(F)(F)F)cc1)CCNCC2            y
13            c1ccc(COc2n[nH]c3c2CCNCC3)cc1            n
